// provenance: patent US20180162952A1

Entries annotated with measured EC50, saporin (Fab-ZAP) cell killing, G401 Cells
molecular target: human PTK7 on non-engineered cells (human), Q13308; experiment: cell-based or functional assay
readoutType: EC50, saporin (Fab-ZAP) cell killing, G401 Cells (pM)

>>> result("SC6.41 (antibody, V domains shown) VH: EVQLQQSGAESVRSGASVKLSCTASGLNIKDYYMHWVNLRPEQGLEWIGWIDPENGDTEYAPEFQGKATMTADTSSNTAYLQLSSLTSEDTAVYYCNACNYGSAYGYWGQGTTLTVSS VL: DIVLTQATPSVPVTPGESVSISCRSSKSLLHTKGDTYLYWFLQRPGQSPQLLIYRMSNLASGVPDRFSGSGSGTVFTLRISRVEAEDVGVYYCMQHLEYPFTFGSGTKLEIKR")
2.6
>>> result("SC6.58 (antibody, V domains shown) VH: EVKLLESGGGLVQPGGSLKLSCAASGFDFSRYWMSWVRQAPGKGLEWIGDLNPDSSAINYTPSLKDKFIISRDNAKNTLYLQMSKVRSEDTALYYCTLITTLVPYTMDFWGQGTSVTVSS VL: ETTVTQSPASLSMAIGEKVTIRCITNTDIDDDMNWYQQKPGEPPKLLISEGNGLRPGVPSRFSSSGYGTDFVFTIENMLSEDVADYYCLQSDNLPLTFGSGTKLEIK")
35.1
>>> result("SC6.21 (antibody, V domains shown) VH: SDVQLQESGPGLVKPSQTLSLTCSVPDYSITSDYHWHWIRQFPGNKLEWMGYISSRGSTNYNPSLKNRISITHDTSENQFFLKLTSVTTEDSATYYCAGLSQLALDYWGQGTTLTVSS VL: DIVMSQSPSSLAVSVGEKVTLSCKSSQSLLYSSTQNNYLAWYQQTPGQSPKLLIYWASTRESGVPDRFTGSGSGTDFTLTISSVKAEDLAVYYCQQYYSYPWTFGGGTKLEIK")
200
>>> result("SC6.23 (antibody, V domains shown) VH: QVTLKESGPGILKPSQTLSLTCSFSGFSLSTSNMGVGWIRQPSGKGLEWLAHIWWDDDKYYNPSLKSQLTISKDTSRNQVFLKITSVDTEDTATYYCVRSNYGYAWFAYWGQGTLVTVSA VL: DIKMTQSPSSMYASLGERVTITCKASQDIYPYLNWFQQKPGKSPKTLIYRTNRLLDGVPSRFSGSGSGQDYSLTISSLDYEDMGIYYCLQYDEFPLTFGAGTKLELK")
2.6
